The reported numbers originate from paper PMC5540273.

- System: AURKA
- MEASUREMENT_SETUP: concentration: 1 μM,replicates: in singlicate; n = 1;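 further: KINOMEscan kinase panel screen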
MEASURED_ATTRIBUTE: %Inh (%)
Return type: number; implicit unit %.

COMPOUND	%Inh (%)
COc1cc2nccc(Nc3ccc(Oc4ccccc4)cc3)c2cc1OC.Cl	22

# input State the recorded %Inh for this entry: `O=C1NCCc2[nH]c(-c3ccncc3)cc21`
# output 28

# input Could you do the same for COc1cccc(CNC(=O)NC2CCN(c3ccnc(Nc4cc(OC)c(OC)c(OC)c4)n3)C2)c1 (stereo not drawn) , please?
# output 85

# input And what about the compound `CC(C)S(=O)(=O)N1CCN(Cc2ccc3c(c2)nc(NC(=O)c2ccsc2)n3C[C@H](O)c2ccccc2)CC1` ?
# output 8

# input Also, `COc1cccc(C2=C(Nc3cccc(Cl)c3)C(=O)NC2=O)c1` please.
# output 0

# input Do the same for `COC(=O)Nc1nc2cc(Oc3ccc(NC(=O)Nc4cc(C(F)(F)F)ccc4Cl)cc3)ccc2[nH]1.Cl` please
# output 0

# input Same read-out for `Cc1cccc(-c2nc(Nc3ccncc3)c3sccc3n2)n1` ?
# output 48

# input Request: `CS(=O)(=O)Nc1ccc(-c2ccnc3[nH]ccc23)cc1`
# output 39

# input Then `O=C(Nc1ccccc1)c1cccc(Oc2ccc3nccn3n2)c1` ?
# output 0

====

- Tested on: GCN2(Kin.Dom.2,S808G)
- Construct: gene EIF2AK4
- MEASUREMENT_SETUP: concentration: 1 μM,replicates: in singlicate; n = 1
MEASURED_ATTRIBUTE: %Inh
Returns: string containing the number followed by the unit.

Take a look at these entries with their results.
COMPOUND	%Inh
CN1CCN(CCCNc2nccc(-c3c(-c4ccc(F)cc4)nn4cc(C(N)=O)ccc34)n2)CC1 [GW622475]	5%
CC(C(=O)NC1CCN(c2ccnc(Nc3ccc(F)cc3)n2)C1)c1ccc(Cl)cc1 (stereo not drawn) [GSK1379713]	0%
Cc1nnc(-c2ccc3occ(-c4ccc(S(C)=O)cc4)c3n2)o1 (stereo not drawn)	0%
Cl.Cl.NC[C@H](CC1CCCCC1)NC(=O)c1ccc(-c2ccnc3[nH]ccc23)s1 [GSK1581428]	0%
COc1ccc(Nc2nccc(N3CCC(NC(=O)c4cccc(C#N)c4)C3)n2)cc1 (stereo not drawn) [GSK1379730]	2%

Would you kindly look at the next entry?
# input Which %Inh value is on record for `CN(c1cccc(CNc2nc(Nc3ccc4c(c3)CC(=O)N4)ncc2C(F)(F)F)c1)S(C)(=O)=O` ?
# output 10%

====

Below, each entry is listed with its recorded %Inh.
- Test system: TIE1
- MEASUREMENT_SETUP: concentration: 1 μM,replicates: in singlicate; n = 1
// units = %; emit number, no label

COMPOUND	MEASURED
Cl.Cl.NC[C@H](CC1CCCCC1)NC(=O)c1ccc(-c2ccnc3[nH]ccc23)s1	100
COc1cccc(C2=C(Nc3cccc(Cl)c3)C(=O)NC2=O)c1	4
CS(=O)(=O)Nc1ccc(-c2ccnc3[nH]ccc23)cc1	28
Cc1cccc(-c2nc(Nc3ccncc3)c3sccc3n2)n1	43
Cc1cccc2c(-c3ccncc3)c(-c3ccc(F)cc3)nn12.Cl	0
Cn1ccc2ncnc(Oc3ccc(NC(=O)Nc4cccc(C(F)(F)F)c4)c(F)c3)c21	96.7
Cn1cc(-c2cccc3c(N)c(C(N)=O)nnc23)cn1	6
Cc1ccc(CC(=O)N2CCc3cc(-c4cn(C)c5ncnc(N)c45)ccc32)cc1	89

# input Quick one: %Inh of `CC(C)c1nc(-c2cccc(NS(=O)(=O)c3ccccc3)c2)c(-c2ccnc(Nc3ccc4c(c3)CN(C)CC4)n2)s1` ?
# output 91.5

# input Okay, and `Cc1ccc2c(-c3ccnc(Nc4ccc(C(F)(F)F)cc4)n3)cnn2n1` ?
# output 0

# input Entry Cc1nnc(-c2ccc3occ(-c4ccc(S(C)=O)cc4)c3n2)o1 (stereo not drawn) please
# output 0

# input Another compound to check: `CC(=O)Nc1nc2cnc(Nc3cc(NC(=O)c4cccc(CC(C)(C)C#N)c4)ccc3C)nc2s1`
# output 20

====

- System: TRPM6
- MEASUREMENT_SETUP: concentration: 1 μM,replicates: in singlicate; n = 1
MEASURED_ATTRIBUTE: %Inh (%)
Please respond with the number in % and leave the unit unwritten.

These recorded examples may help you get a feel for the data.
MOLECULE	MEASURED
Cc1ccn2nc(-c3ccc(F)cc3)c(-c3ccncc3)c2c1.Cl	14
Cc1ccc2c(-c3ccnc(Nc4ccc(C(F)(F)F)cc4)n3)cnn2n1	43
O=C(Nc1ccc(Oc2ccc3nc(NC(=O)C4CC4)cn3n2)c(F)c1)c1cccn(-c2ccccc2)c1=O	0

Query molecule follows.
# input // lookup %Inh for CC(C(=O)NC1CCN(c2ccnc(Nc3ccc(F)cc3)n2)C1)c1ccc(Cl)cc1 (stereo not drawn)
# output 0

====

- Tested on: LRRK2
- MEASUREMENT_SETUP: concentration: 1 μM,replicates: in singlicate; n = 1
MEASURED_ATTRIBUTE: %Inh (%)
Report the value in % with no unit label.

In the examples that follow, each entry is paired with its recorded %Inh.
COMPOUND	%Inh, %
O=C(NCC1CC1)c1ccc(-c2cc(C(=O)NC3CC3)ccc2F)cc1	71
NC(=O)Nc1sc(-c2ccc(F)cc2)cc1C(N)=O	0
COC(=O)c1cccc(NC(=O)NC2CCN(c3ccnc(Nc4cc(OC)c(OC)c(OC)c4)n3)C2)c1 (stereo not shown)	0
CN1CCN(CCNc2nc3cc(Oc4ccc(NC(=O)Nc5cc(C(F)(F)F)ccc5F)cc4)ccc3[nH]2)CC1.Cl.Cl	0
COC(=O)c1cccc(NC(=O)NC2CCN(c3ccnc(NCc4ccc(F)cc4)n3)CC2)c1	8

# input // %Inh lookup, key: `CC(=O)Nc1ccc(-c2cc3ncnc(SCC(=O)O)c3s2)cc1`
# output 0

# input Record: `COc1cccc(C2=C(Nc3cccc(Cl)c3)C(=O)NC2=O)c1`
# output 83

# input What about this compound? COc1cc(Nc2nccc(N3CCC(NC(=O)c4cccc(C#N)c4)C3)n2)cc(OC)c1OC (stereo not shown)
# output 0

# input Same for `CCn1c(-c2nonc2N)nc2cncc(CNC3CCNCC3)c21.Cl`
# output 43

# input Follow-up item: `CC(=O)Nc1nc2cnc(Nc3cc(NC(=O)c4cccc(CC(C)(C)C#N)c4)ccc3C)nc2s1`
# output 9

====

Listed compounds paired with reported %Inh
- Test system: TAOK3
- MEASUREMENT_SETUP: concentration: 1 μM,replicates: in singlicate; n = 1
Write the value in % as a bare number.

// solved cases for %Inh follow
COMPOUND	MEASURED
CN(c1ccccc1CNc1nc(Nc2ccc3c(c2)CC(=O)N3)ncc1C(F)(F)F)S(C)(=O)=O	86
COc1ccc(Nc2nccc(N3CCC(NC(=O)c4cccc(C#N)c4)C3)n2)cc1 (centres unmarked) [GSK1379730]	0
COc1cccc(C2=C(Nc3cccc(Cl)c3)C(=O)NC2=O)c1 [SB-341556]	23
Nc1nccc(-c2ccc3c(N)n[nH]c3c2)n1 [GSK1034945]	0

Let's switch to this compound now.
# input What %Inh value was documented for this compound, COc1cc2ncn(-c3cc(OCC4CCCCC4)c(C(N)=O)s3)c2cc1OC [GSK204559] ?
# output 0

====

- System: RSK3(Kin.Dom.2-C-terminal)
- Construct: gene RPS6KA2
- MEASUREMENT_SETUP: concentration: 1 μM,replicates: in singlicate; n = 1
MEASURED_ATTRIBUTE: %Inh (%)
Return type: number; implicit unit %.

A selection of reference data follows.
MOLECULE	UNIT_SYMBOL	%Inh
CC(C)c1nc(-c2cccc(NS(=O)(=O)c3ccccc3)c2)c(-c2ccnc(Nc3ccc4c(c3)CN(C)CC4)n2)s1 [GSK1649598]	%	0
Cc1nnc(-c2ccc3occ(-c4ccc(S(C)=O)cc4)c3n2)o1 (centres unmarked)	%	3
C[C@@H](Oc1cc(-n2cnc3ccc(-c4ccncc4)cc32)sc1C(N)=O)c1ccccc1Cl [GSK483724]	%	0
CN(c1cccc(CNc2nc(Nc3ccc4c(c3)CC(=O)N4)ncc2C(F)(F)F)c1)S(C)(=O)=O	%	27
Cc1ccn2nc(-c3ccc(F)cc3)c(-c3ccncc3)c2c1.Cl [GW457859]	%	24
Cc1cccc(-c2nc(Nc3ccncc3)c3sccc3n2)n1 [GW869641]	%	21
CN(c1ccc2c(c1)nc(NCc1ccc(F)cc1)n2C)c1ccnc(Nc2ccc(CS(C)(=O)=O)cc2)n1.Cl [GW813244]	%	28

Now take the following molecule into account.
# input Dear colleague, I am looking for the recorded %Inh of the following molecule: `Cn1ccc2ncnc(Oc3ccc(NC(=O)Nc4cnn(C(C)(C)C)c4)c(Cl)c3)c21`
# output 9

====

- Tested on: BRSK2
- MEASUREMENT_SETUP: concentration: 1 μM,replicates: in singlicate; n = 1
Below: a set of entries, each annotated with reported %Inh.
Value expressed in %; do not type the unit.

COMPOUND	UNIT_SYMBOL	MEASURED
CS(=O)c1ccc(-c2coc3ccc(-c4n[nH]c(=O)o4)cc23)cc1 (centres unmarked)	%	2
OCCn1cc(-c2cnc3nnn(Cc4ccc5ncccc5c4)c3n2)cn1	%	0
Cc1cccc(-c2nc(Nc3ccncc3)c3sccc3n2)n1	%	7
O=C(Nc1cccc(Oc2ccc3nccn3n2)c1)Nc1cccc(C(F)(F)F)c1	%	13

# input What value of measured %Inh is listed for `CCCC(=O)Nc1n[nH]c2ncccc12` ?
# output 0
